- Test system: ATP;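 note: ATP exposure 15 min at 22 °C before imaging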
- Test details: switch fluorescence ratio, 500 uM ATP over buffer (Cy3 cluster intensity, sum of 5 cycles each) (fold (ratio)); higher = stronger signal-on switching upon ATP binding; sequences stand for … in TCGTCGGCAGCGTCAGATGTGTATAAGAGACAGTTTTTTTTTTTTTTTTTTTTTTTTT…TC
- Assay context: aptamer strand: ATP DNA aptamer (quencher-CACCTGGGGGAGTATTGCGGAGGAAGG + anchor), 100 nM annealed; ATP concentration: 500 uM
Cut-off 1 on switch fluorescence ratio, inclusive. At or above means t; below means f.

Sequence input: CGGTCGGGAT
Assigned class: f
--
Sequence input: TGGTGTGTAC
Assigned class: t
--
Sequence input: GGATCTAGAA
Assigned class: f
--
Sequence input: TCCGCACCGT
Assigned class: t
--
Sequence input: AGTTTGTACG
Assigned class: t
--
Sequence input: AGCAAACGGG
Assigned class: t

###

- Test system: ATP;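 note: ATP exposure 15 min at 22 °C before imaging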
- Test details: switch fluorescence ratio, 500 uM ATP over buffer (Cy3 cluster intensity, sum of 5 cycles each) (fold (ratio)); higher = stronger signal-on switching upon ATP binding; sequences stand for … in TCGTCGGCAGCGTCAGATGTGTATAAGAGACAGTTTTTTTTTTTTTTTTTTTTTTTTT…TC
- Assay context: aptamer strand: ATP DNA aptamer (quencher-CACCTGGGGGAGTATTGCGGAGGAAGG + anchor), 100 nM annealed; ATP concentration: 500 uM

Sequence input: TTAAAAGAT
switch fluorescence ratio: 0.998
//
Sequence input: TGAGTGTGGG
switch fluorescence ratio: 0.99
//
Sequence input: GGTAATTTTC
switch fluorescence ratio: 1.11
//
Sequence input: GATTTAGGCA
switch fluorescence ratio: 0.986
//
Sequence input: AAAGGCTCGG
switch fluorescence ratio: 0.978
//
Sequence input: GATTCTGGCA
switch fluorescence ratio: 0.971
//
Sequence input: CAGGGAGCAG
switch fluorescence ratio: 1.05
//
Sequence input: CGGGGGCGTT
switch fluorescence ratio: 1
//
Sequence input: CCTAATAGGG
switch fluorescence ratio: 0.993
//
Sequence input: CAATGAGTAT
switch fluorescence ratio: 1.01
//
Sequence input: GGGGAAGGGT
switch fluorescence ratio: 1.08
//
Sequence input: TCTGGGGTGG
switch fluorescence ratio: 1.16
//
Sequence input: ATGGTTCGGG
switch fluorescence ratio: 0.996
//
Sequence input: CGCGTTTTTT
switch fluorescence ratio: 1.07
//
Sequence input: GGTTTAGGAA
switch fluorescence ratio: 1
//
Sequence input: CGCGTCGCTG
switch fluorescence ratio: 0.981
//
Sequence input: TGTGTTGGGA
switch fluorescence ratio: 0.98
//
Sequence input: GTTACAAGGG
switch fluorescence ratio: 0.988
//
Sequence input: TTTTTTGAAG
switch fluorescence ratio: 0.997
//
Sequence input: GATAATAGGC
switch fluorescence ratio: 1
//
Sequence input: ATTCTTAGGG
switch fluorescence ratio: 1.12
//
Sequence input: TGAGGAATGT
switch fluorescence ratio: 1.02
//
Sequence input: AGGTGGGGTG
switch fluorescence ratio: 1.03
//
Sequence input: AAGGACTGAA
switch fluorescence ratio: 0.999
//
Sequence input: ACGGCAAGGA
switch fluorescence ratio: 1.12
//
Sequence input: TGGGGTGACA
switch fluorescence ratio: 1.01
//
Sequence input: GGGGTTTGTA
switch fluorescence ratio: 0.98
//
Sequence input: TGTGGCGGTT
switch fluorescence ratio: 1.01
//
Sequence input: TACGCGTAAT
switch fluorescence ratio: 1.01
//
Sequence input: GATTAAAGGA
switch fluorescence ratio: 1.01
//
Sequence input: ATTCATATTG
switch fluorescence ratio: 1.01
//
Sequence input: AGGAGGGTTT
switch fluorescence ratio: 0.999
//
Sequence input: GTGCCAAGGG
switch fluorescence ratio: 1.16
//
Sequence input: CGTTTTTGAT
switch fluorescence ratio: 0.981
//
Sequence input: GATTAAGCGT
switch fluorescence ratio: 0.984
//
Sequence input: GGGGGCTTAT
switch fluorescence ratio: 1.01
//
Sequence input: AAAAGTGGGA
switch fluorescence ratio: 1.03
//
Sequence input: ATGCATAGTT
switch fluorescence ratio: 0.963
//
Sequence input: TTAAATGTTG
switch fluorescence ratio: 1.01

Every entry's value here was drawn from the supplement of paper PMC10126150.
